Target: cyno-NKG2D/Dap10 over-expressed in CHO cells (cyno) (UniProt P61252)
Sequence (P61252 whole entry): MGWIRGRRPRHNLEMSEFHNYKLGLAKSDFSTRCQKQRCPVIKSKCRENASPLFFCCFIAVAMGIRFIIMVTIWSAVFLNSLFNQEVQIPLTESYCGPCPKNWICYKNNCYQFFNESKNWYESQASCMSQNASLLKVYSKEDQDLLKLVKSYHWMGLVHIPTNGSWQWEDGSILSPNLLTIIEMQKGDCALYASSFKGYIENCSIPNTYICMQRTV
Assay: FACS on CHO cells over expressing cynoNKG2D
Reported endpoint: pEC50
Units for pEC50: none; it is -log10 of a concentration expressed in mol/L.

Reported pEC50 for IM1245 CD3x5T4x NKG2D-cl-1 (H-L) (protein, part only; not given: anti-CD3 Fab, anti-5T4 scFv, linkers, not shown: another chain or arm of the molecule; small tags and cut ends) VH: EVQLQQSGPELVKPGASVKISCKASAFNFTSYYLHWVKQGPGQGLEWIGWIYPGSGDTKYNEKFKGKATLTADTSSSAANMKLSSLTSEDSAVYYCARNRIFDSYYVDSMDYWGQGTSVTVSS VL: DIVLTQSPASLAVSLGQRAIISCKASQSVSFAGSNLMHWYQQKPGQQPKLLIYRASNLEVGVPTRFSGSGSGTDFTLNIHPVDEDDAATYYCQQSREYPFTFGSGTKLEIK was 7.89

Reported pEC50 for IM1246 CD3x5T4x NKG2D-cl-9 (L-H) (protein, part only; not given: anti-CD3 Fab, anti-5T4 scFv, linkers, not shown: another chain or arm of the molecule; small tags and cut ends) VL: DVLMTQTPLSLPVSLGDQASISCRSSQSIVHTNGNTYLEWYLQKPGQSPKLLIYRVFNRFSGVPDRFSGSGSGTEFTLKISRVEAEDLGVYYCFQGSHVPFTFGAGTKLELK VH: EVKLLQSGGGLVQPGGSLKLSCAASGIDLSRYWMSWVRRAPGKGLEWIGEINPDSSTINYAPSLKDKFIISRDNAKNTLSLQMRKVRSEDTALYFCIRRRYYGSSYWYFDVWGTGTTVTVSS was 7.82

Reported pEC50 for IM1247 CD3x5T4x NKG2D-cl-9 (H-L) (protein, part only; not given: anti-CD3 Fab, anti-5T4 scFv, linkers, not shown: another chain or arm of the molecule; small tags and cut ends) VH: EVKLLQSGGGLVQPGGSLKLSCAASGIDLSRYWMSWVRRAPGKGLEWIGEINPDSSTINYAPSLKDKFIISRDNAKNTLSLQMRKVRSEDTALYFCIRRRYYGSSYWYFDVWGTGTTVTVSS VL: DVLMTQTPLSLPVSLGDQASISCRSSQSIVHTNGNTYLEWYLQKPGQSPKLLIYRVFNRFSGVPDRFSGSGSGTEFTLKISRVEAEDLGVYYCFQGSHVPFTFGAGTKLELK was 7.52
